Give IC50 for every item shown.
system: S. mansoni adult worms; assay: In vitro assay, S. mansoni adult worms; format: cell-based; conditions: Schistosoma mansoni; S. mansoni adult worms, in vitro; read-out: (a) Adult
Respond with the bare value in µM.

Consider Cc1nc2cnc(-c3ccc(F)c(S(F)(F)(F)(F)F)c3)cn2c1-c1ccc2[nH]ncc2c1F [Example 64] . Its measured IC50 is 0.026

Consider CC1(c2nc3cnc(-c4ccc(F)c(C(F)(F)F)c4)cn3c2-c2c(F)cc(O)cc2F)CC1 [Example 33] . Its measured IC50 is 0.056

Consider Cc1nc2cnc(-c3ccc(F)c(C(F)(F)C(F)(F)F)c3)cn2c1-c1c(F)cc(O)cc1F [Example 53] . Its measured IC50 is 0.019

Consider CC(C)Oc1cccc(-c2cn3c(-c4ccc5[nH]ncc5c4F)c(C(F)(F)F)nc3cn2)c1 [Example 86] . Its measured IC50 is 0.017

Consider Fc1ccc(-c2cn3c(-c4ccc5[nH]ncc5c4F)c(C(F)(F)F)nc3cn2)cc1OC(F)(F)F [Example 71] . Its measured IC50 is 0.014

Consider Oc1cc(F)c(-c2c(C3CC3)nc3cnc(-c4ccc(F)c(C(F)(F)F)c4)cn23)c(F)c1 [Example 34] . Its measured IC50 is 0.069

Consider CCc1nn2cnc(-c3ccc(F)c(C(F)(F)F)c3)cc2c1-c1c(F)cc(O)cc1F [Example 48] . Its measured IC50 is 0.011

Consider CC(C)c1cc(-c2cn3c(-c4ccc5[nH]ncc5c4F)c(C4CC4)nc3cn2)ccc1F [Example 79] . Its measured IC50 is 0.005

Consider CC(C)c1nc2cnc(-c3cccc(C(F)(F)F)c3)cn2c1-c1ccc2[nH]ncc2c1F [Example 21] . Its measured IC50 is 0.037

Consider Fc1ccc(-c2cc3c(-c4ccc5[nH]ncc5c4F)c(C4CC4)nn3cn2)cc1C(F)(F)C(F)(F)F [Example 59] . Its measured IC50 is 0.066

Consider CCc1nc2cnc(-c3ccc(F)c(C(F)(F)F)c3)cn2c1-c1c(F)cc(O)cc1F [Example 36] . Its measured IC50 is 0.053

Consider CC(C)c1nn2cnc(-c3ccc(F)c(C(F)(F)C(F)(F)F)c3)cc2c1-c1ccc2[nH]ncc2c1F [Example 58] . Its measured IC50 is 0.031

Consider Oc1cc(F)c(-c2c(C3CC3)nc3cnc(-c4ccc(F)c(S(F)(F)(F)(F)F)c4)cn23)c(F)c1 [Example 56] . Its measured IC50 is 0.019

Consider Fc1ccc(-c2cn3c(-c4ccc5[nH]ncc5c4F)c(C(F)(F)F)nc3cn2)cc1C1CCC1 [Example 82] . Its measured IC50 is 0.045

Consider Cc1nc2cnc(-c3ccc(F)c(C(F)(F)F)c3)cn2c1-c1c(F)cc(O)cc1F [Example 16] . Its measured IC50 is 0.12

====

Give IC50 for every item shown.
System: S. mansoni adult worms
Experiment: In vitro assay, S. mansoni adult worms
Format: cell-based
Details: Schistosoma mansoni; S. mansoni adult worms, in vitro; read-out: (a) Adult
Protocol: The routine biological assays using adult or juvenile worms and cytotoxicity assays using MRC-5 cells have been disclosed previously in Mansour, N. R., et al. (2016). “High Throughput Screening Identifies Novel Lead Compounds with Activity against Larval, Juvenile and Schistosoma mansoni PLoS Negl Trap Dis 10(4): e0004659. Cytotoxicity assays using the HepG2 cell line were carried out as described in Molecular Diversity (2015) 19, 251-261. (a) S. mansoni adult worms
Respond with the bare value in nM.

Consider Fc1ccc(-c2cn3c(-c4ccc5[nH]ncc5c4F)c(C(F)(F)F)nc3cn2)cc1CC(F)(F)F [Example 69] . Its measured IC50 is 12

Consider CC(C)c1nn2cnc(-c3ccc(F)c(C(F)(F)F)c3)cc2c1-c1ccc2[nH]ncc2c1F [Example 61] . Its measured IC50 is 37

Consider CC(C)c1nc2cnc(-c3cccc(C(F)(F)F)c3)cn2c1-c1c(F)cc(O)cc1F [Example 19] . Its measured IC50 is 42

Consider CC(C)c1nc2cnc(-c3ccc(F)c(C(F)(F)F)c3)nc2n1-c1c(F)cc(O)cc1F [Example 89] . Its measured IC50 is 71

Consider CC(C)c1nc2cnc(-c3ccc(F)c(C(F)(F)F)c3)cn2c1-c1ccc2[nH]ncc2c1F [Example 2] . Its measured IC50 is 47

Consider Fc1ccc(-c2cn3c(-c4ccc5[nH]ncc5c4F)c(C4CC4)nc3cn2)cc1C(F)(F)F [Example 32] . Its measured IC50 is 63

Ref: patent US11046700B2
